biological target: Erk2 (Homo sapiens, UniProt P28482); construct: in some cases as full-length kinases, in some cases as truncated fragments; experiment: Cell-free kinase assay (ALPHA technology), Erk2; settings: at 10 μM ATP
Sequence (P28482 whole entry, the tested form may be a part): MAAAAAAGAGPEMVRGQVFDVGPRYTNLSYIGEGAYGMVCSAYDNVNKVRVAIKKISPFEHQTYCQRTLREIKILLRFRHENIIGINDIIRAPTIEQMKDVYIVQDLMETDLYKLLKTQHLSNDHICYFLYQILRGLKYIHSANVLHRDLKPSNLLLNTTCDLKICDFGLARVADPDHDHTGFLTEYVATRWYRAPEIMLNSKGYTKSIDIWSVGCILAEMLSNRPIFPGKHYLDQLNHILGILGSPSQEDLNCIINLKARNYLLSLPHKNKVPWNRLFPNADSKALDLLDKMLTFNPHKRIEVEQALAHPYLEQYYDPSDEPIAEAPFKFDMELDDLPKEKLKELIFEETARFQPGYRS
Provide the recorded IC50 for the entries that follow.

Query (compound): "Cn1cc(-c2cnc3c(NC(=O)NCC(F)(F)F)ccnc3c2)cn1" ; field requested: IC50
> 100 µM

Let us now turn to "O=C(Nc1ccnc2cc(-c3ccnc(F)c3)cnc12)NC1CC1"
> 100 µM

Let us now turn to "COc1cc(-c2cnc3c(NC(=O)NC(C)(C)C)ccnc3c2)ccc1O"
> 100 µM

Let us now turn to "Cn1cc(-c2cnc3c(NC(=O)NC4CC4)ccnc3c2)cn1"
> 100 µM

Let us now turn to "Cn1cc(-c2cnc3c(NC(=O)NCCCCc4ccccc4)ccnc3c2)cn1"
> 31.6 µM

Let us now turn to "O=C(Nc1ccnc2cc(-c3ccsc3)cnc12)NC1CC1"
> 100 µM

Let us now turn to "CCCCNC(=O)Nc1ccnc2cc(-c3cnn(C)c3)cnc12"
> 31.6 µM

Let us now turn to "Cn1cc(-c2cnc3c(NC(=O)NCCc4ccccc4)ccnc3c2)cn1"
> 100 µM
